system_name: human CDK9/CyclinT kinase complex (Homo sapiens (Human), UniProt P50750)
Sequence (P50750 whole entry): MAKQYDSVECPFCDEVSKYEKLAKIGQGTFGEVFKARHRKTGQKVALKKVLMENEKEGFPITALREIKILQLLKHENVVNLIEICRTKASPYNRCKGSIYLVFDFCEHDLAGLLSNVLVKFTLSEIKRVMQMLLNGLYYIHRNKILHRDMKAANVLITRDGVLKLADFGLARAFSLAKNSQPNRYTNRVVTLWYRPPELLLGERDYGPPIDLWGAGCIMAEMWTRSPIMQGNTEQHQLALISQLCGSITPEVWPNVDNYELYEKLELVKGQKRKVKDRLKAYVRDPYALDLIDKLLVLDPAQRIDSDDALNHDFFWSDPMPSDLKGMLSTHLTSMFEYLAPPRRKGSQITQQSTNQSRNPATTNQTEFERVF
Sequence (O60563 whole entry partner): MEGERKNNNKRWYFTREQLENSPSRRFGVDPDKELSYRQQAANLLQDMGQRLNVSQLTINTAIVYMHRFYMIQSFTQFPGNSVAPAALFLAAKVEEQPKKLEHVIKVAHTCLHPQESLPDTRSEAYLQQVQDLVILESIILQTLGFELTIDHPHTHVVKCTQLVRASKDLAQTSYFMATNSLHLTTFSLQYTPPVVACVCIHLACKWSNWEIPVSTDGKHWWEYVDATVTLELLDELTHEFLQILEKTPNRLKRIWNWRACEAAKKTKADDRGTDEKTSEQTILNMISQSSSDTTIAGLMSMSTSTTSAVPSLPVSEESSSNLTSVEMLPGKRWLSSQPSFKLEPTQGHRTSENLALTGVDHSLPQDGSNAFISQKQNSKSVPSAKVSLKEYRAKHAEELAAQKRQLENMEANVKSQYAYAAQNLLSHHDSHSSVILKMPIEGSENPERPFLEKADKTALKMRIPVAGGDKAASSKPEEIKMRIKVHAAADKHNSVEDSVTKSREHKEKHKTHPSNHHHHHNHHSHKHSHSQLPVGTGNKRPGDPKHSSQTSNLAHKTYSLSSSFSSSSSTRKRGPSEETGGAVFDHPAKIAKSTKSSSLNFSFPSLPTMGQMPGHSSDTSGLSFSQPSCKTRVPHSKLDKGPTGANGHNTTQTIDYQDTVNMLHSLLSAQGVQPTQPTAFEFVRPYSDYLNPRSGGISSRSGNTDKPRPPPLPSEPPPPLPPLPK
assay: In Vitro CDK9/CyclinT Assay (IMAP fluorescent polarization)
Format: biochemical
details: Table 1
Procedure: In Vitro CDK9/CyclinT Assay The activity of the compounds described in the present invention can be determined by measuring the phosphorylation of a fluorescently-labeled peptide by human CDK9/CyclinT kinase complex by fluorescent polarization using a commercially available IMAP Screening Express Assay Kit (Molecular devices). Test compounds were diluted in 100% DMSO to 5 mM stock concentration, then further dilutions were made in H2O or 100% DMSO to desirable concentrations. […]
measured_attribute: IC50

- compound: "COc1ccc(Nc2cc(-c3cc(F)ccc3OC)ncn2)cc1N [Example 75]"
  system_name: "human CDK9/CyclinT kinase complex (Homo sapiens (Human), UniProt P50750)"
  measured_attribute: "IC50"
  test_value: "< 1000 nM"
- compound: "CCOc1cc(F)ccc1-c1cc(Nc2cc(N)c(OC)c(F)c2)ncn1 [Example 89]"
  system_name: "human CDK9/CyclinT kinase complex (Homo sapiens (Human), UniProt P50750)"
  measured_attribute: "IC50"
  test_value: "< 1000 nM"
- compound: "CNC(=O)c1ccc(Nc2cc(-c3ccccc3OC)ncn2)cc1OC [Example 134]"
  system_name: "human CDK9/CyclinT kinase complex (Homo sapiens (Human), UniProt P50750)"
  measured_attribute: "IC50"
  test_value: "< 1000 nM"

Give the measured IC50 of COc1ccc(F)cc1-c1cc(Nc2cc(N)c(OC)c(F)c2)ncn1 [Example 91] .
< 1000 nM

Give the measured IC50 of CCOc1ccc(F)cc1-c1cc(Nc2cc(C(N)=O)c(OC)cc2F)ncn1 [Example 148] .
< 10000 nM

Give the measured IC50 of CCOc1ccc(Nc2cc(-c3ccc(F)cc3OC)ncn2)cc1[N+](=O)[O-] [Example 103] .
< 1000 nM

Give the measured IC50 of COc1cc(F)ccc1-c1cc(Nc2cc(F)c(OC)c(C(N)=O)c2)ncn1 [Example 138] .
< 10000 nM

Give the measured IC50 of COc1ccccc1-c1cc(Nc2ccc(OC)c([N+](=O)[O-])c2)ncn1 [Example 11] .
< 1000 nM

----------
Test system: Primary T cells
assay: Cytotoxicity, viability by flow cytometry
Format: cell-based
Rule for this label: Fulfilled means TD50 is less than 10 µM; Not fulfilled means TD50 is at least 10 µM.

- structure_smiles: "CNCc1cc(Nc2cc(-c3ccccc3OC)ncn2)ccc1OC"
  class_assignment: "Fulfilled"
- structure_smiles: "CCOc1ccc(Nc2cc(-c3ccc(F)cc3OC)ncn2)cc1N"
  class_assignment: "Fulfilled"
- structure_smiles: "CCOc1cc(F)ccc1-c1cc(Nc2cc(C(N)=O)c(OC)cc2F)ncn1"
  class_assignment: "Not fulfilled"
- structure_smiles: "CCOc1cc(F)ccc1-c1cc(Nc2ccc(OC)c(C(N)=O)c2)ncn1"
  class_assignment: "Not fulfilled"
- structure_smiles: "COc1ccc(Nc2cc(-c3cc(F)c(F)cc3OC)ncn2)cc1N"
  class_assignment: "Not fulfilled"

Consider the record given below.
Hello, I'm reviewing records and need to know if TD50 of COc1ccc(Nc2cc(-c3ccc(F)cc3OC(C)C)ncn2)cc1N is below 10 µM. Could you check?
Fulfilled

----------
# key: entry, value: pIC50
system_name: human CDK9/CyclinT kinase complex (Homo sapiens (Human), UniProt P50750)
assay: In Vitro CDK9/CyclinT Assay (IMAP fluorescent polarization)
Format: biochemical
pIC50: −log10 of the molar value.

Worked examples follow.
- structure_smiles: "COc1cc(F)ccc1-c1cc(Nc2ccc(F)c([N+](=O)[O-])c2)ncn1"
  test_value: "> 5.00"
- structure_smiles: "COc1cc(Nc2cc(-c3ccccc3OC)ncn2)ccc1OCc1ccccc1"
  test_value: "> 5.00"

Which pIC50 is reported with human CDK9/CyclinT kinase complex (Homo sapiens (Human), UniProt P50750) for this entry: COc1ccccc1-c1cc(Nc2cc(N)c(OC)c(F)c2)ncn1 ?
> 6.00

Which pIC50 is reported with human CDK9/CyclinT kinase complex (Homo sapiens (Human), UniProt P50750) for this entry: CCOc1ccccc1-c1cc(Nc2cc(C(N)=O)c(OC)cc2F)ncn1 ?
> 6.00

----------
system_name: human CDK9/CyclinT kinase complex (Homo sapiens (Human), UniProt P50750)
assay: In Vitro CDK9/CyclinT Assay (IMAP fluorescent polarization)
Assay type: biochemical
details: Table 1
measured_attribute: IC50

Worked examples follow.
- structure_smiles: "COc1ccc(Nc2cc(-c3cccc(F)c3OC)ncn2)cc1[N+](=O)[O-]"
  measured_attribute: "IC50"
  test_value: "> 10 µM"
- structure_smiles: "COc1ccccc1-c1cc(Nc2ccc([N+](=O)[O-])c(F)c2)ncn1"
  measured_attribute: "IC50"
  test_value: "< 10 µM"
- structure_smiles: "CCOc1cc(F)ccc1-c1cc(Nc2ccc(OC)c([N+](=O)[O-])c2)ncn1"
  measured_attribute: "IC50"
  test_value: "< 1 µM"
- structure_smiles: "CCOc1ccccc1-c1cc(Nc2ccc(OC)c(O)c2)ncn1"
  measured_attribute: "IC50"
  test_value: "< 1 µM"
- structure_smiles: "COc1cc(F)c(Nc2cc(-c3ccccc3OC)ncn2)cc1N"
  measured_attribute: "IC50"
  test_value: "< 10 µM"
- structure_smiles: "COc1cc(Nc2cc(-c3ccccc3OC)ncn2)ccc1C(N)=O"
  measured_attribute: "IC50"
  test_value: "< 1 µM"

Give the measured IC50 of CNS(=O)(=O)Nc1cc(Nc2cc(-c3ccccc3OC)ncn2)ccc1OC .
< 0.1 µM

Give the measured IC50 of COc1ccc(Nc2cc(-c3ccccc3OC)ncn2)cc1OC(=O)N(C)C .
< 1 µM

Give the measured IC50 of COc1cc(F)c(F)cc1-c1cc(Nc2ccc(OC)c([N+](=O)[O-])c2)ncn1 .
> 10 µM

----------
system_name: human CDK9/CyclinT kinase complex (Homo sapiens (Human), UniProt P50750)
assay: In Vitro CDK9/CyclinT Assay (IMAP fluorescent polarization)
Type: biochemical
pIC50: −log10 of the molar value. Counter-ions that a name gives are not always drawn.
# key: entry, value: pIC50

- compound: "COc1ccccc1-c1cc(Nc2ccc(N(C)C)c(C(N)=O)c2)ncn1"
  pIC50: "> 6.00"
- compound: "COc1ccccc1-c1cc(Nc2ccc(Cl)c(CN3C(=O)c4ccccc4C3=O)c2)ncn1"
  pIC50: "> 5.00"
- compound: "COc1ccccc1-c1cc(Nc2ccc(Cl)c(C(N)=O)c2)ncn1"
  pIC50: "> 6.00"

Which pIC50 is reported with human CDK9/CyclinT kinase complex (Homo sapiens (Human), UniProt P50750) for this entry: COc1ccc(Nc2cc(-c3cccc(F)c3OC)ncn2)cc1N ?
> 5.00

Which pIC50 is reported with human CDK9/CyclinT kinase complex (Homo sapiens (Human), UniProt P50750) for this entry: COC(=O)N(C)c1cc(Nc2cc(-c3ccccc3OC)ncn2)ccc1OC [Example 98, hydrochloride] ?
> 6.00

Which pIC50 is reported with human CDK9/CyclinT kinase complex (Homo sapiens (Human), UniProt P50750) for this entry: COc1ccc(Nc2cc(-c3ccccc3OC)ncn2)cc1Br ?
> 5.00

Which pIC50 is reported with human CDK9/CyclinT kinase complex (Homo sapiens (Human), UniProt P50750) for this entry: CCOc1ccc(Nc2cc(-c3ccc(F)cc3OC)ncn2)cc1C(N)=O ?
> 6.00

Which pIC50 is reported with human CDK9/CyclinT kinase complex (Homo sapiens (Human), UniProt P50750) for this entry: COc1ccccc1-c1cc(Nc2ccc(N(C)C)c(Cn3cnc4ccccc43)c2)ncn1 ?
> 6.00

Which pIC50 is reported with human CDK9/CyclinT kinase complex (Homo sapiens (Human), UniProt P50750) for this entry: COc1ccc(-c2cc(Nc3ccc(OC)c(N)c3)ncn2)cc1 ?
< 5.00

----------
Tested on: Primary T cells
assay: Cytotoxicity, viability by flow cytometry
Type: cell-based
Method: Primary T cells are cultured and treated with different concentrations of the test compound. Viability is analysed by measuring through flow cytometry based techniques the percentage of viable cells, compared to untreated control=100%).
# key: entry, value: TD50
API: value field is a number in µM; no unit string.

- structure_smiles: "COc1ccc(Nc2cc(-c3ccccc3OC)ncn2)cc1CN(C)C"
  TD50 [µM]: 3
- structure_smiles: "COc1ccc(Nc2cc(-c3ccccc3OC)ncn2)cc1C(N)=O"
  TD50 [µM]: 15
- structure_smiles: "COc1ccc(Nc2cc(-c3ccccc3OC(C)C)ncn2)cc1N"
  TD50 [µM]: 15

Give the measured TD50 of COc1ccccc1-c1cc(Nc2ccc(N(C)C)c(Cn3cnc4ccccc43)c2)ncn1 .
4

Give the measured TD50 of CCOc1ccc(Nc2cc(-c3ccccc3OC)ncn2)cc1C(N)=O .
12

Give the measured TD50 of COc1ccc(Nc2cc(-c3ccccc3OC)ncn2)cc1NS(=O)(=O)NC1CCCCC1 .
5

Source listed as patent US9617225B2.
